The reported numbers originate from patent US8173673B2.

- Tested on: 293 kidney epithelial cells
- assay_overview: Cytotoxicity by the Alamar-Blue assay
- Format: cell-based
measured_property: IC50 (µM)
Numbers only, in µM.

Inquiry: Tell me the measured IC50 of `COc1cc(OC)c2c(C)[n+](-c3ccc(-c4ccc(-[n+]5c(C)cc6cc(OC)cc(OC)c6c5C)cc4)cc3)c(C)cc2c1` , please.
Reply text: 42.4
